System: 786-0 renal
assay procedure: NCI-60 one-dose screen, 48 h (100 = growth as untreated, 0 = no growth, -100 = all killed)
condition set: 10 µM
The panel holds about 83,000 compounds, 20% with a hit somewhere; the sample as a whole holds those more often. Where a SMILES comes first, the peptide text is derived from it. Bridges are numbered along the chain shown (N, C = ends). [ ]: non-standard residue; d: D form. The star is where a group is joined. ξ: configuration not given here. ξNMePhe(4-NMe2) = CNC(Cc1ccc(N(C)C)cc1)C(=O)O; Picolinoyl(3-OH) = O=C(c1ncccc1O)*; ξPip(4-oxo) = O=C1CCNC(C(=O)O)C1; Phg = N[CH](C(=O)O)c1ccccc1; Abu = CC[CH](N)C(=O)O
growth values for the compounds below.

{"compound": "NCC(=O)CCC(=O)O", "target or system": "786-0 renal", "unit of measurement": "%", "growth": 103}
{"compound": "COc1ccc(C)cc1OC", "target or system": "786-0 renal", "unit of measurement": "%", "growth": 105}
{"compound": "O=C(O)CCCCNC(=O)c1ccccc1", "target or system": "786-0 renal", "unit of measurement": "%", "growth": 97.5}
{"compound": "CC(C)CCOC(=O)c1ccccc1", "target or system": "786-0 renal", "unit of measurement": "%", "growth": 99.8}
{"compound": "CC(=O)CC(=O)N(C)C", "target or system": "786-0 renal", "unit of measurement": "%", "growth": 97.8}
{"compound": "O=C(O)/C=C/c1ccc2c(c1)CCC2", "target or system": "786-0 renal", "unit of measurement": "%", "growth": 101}
{"compound": "C=CCOC(=O)C(=O)OCC=C", "target or system": "786-0 renal", "unit of measurement": "%", "growth": 106}
{"compound": "O=C(OCC(O)C1OC(c2ccccc2)OC(COC(=O)c2ccccc2)C1O)c1ccccc1 (centres undefined)", "target or system": "786-0 renal", "unit of measurement": "%", "growth": 111}
{"compound": "CCC/C=C(/C(C)=O)C(=O)OCC", "target or system": "786-0 renal", "unit of measurement": "%", "growth": 113}
{"compound": "O=[N+]([O-])c1ccc(N=Nc2ccccc2)cc1", "target or system": "786-0 renal", "unit of measurement": "%", "growth": 92}
{"compound": "CC(=O)c1ccc(N=C(C#N)C2=C(O)c3ccccc3C2=O)cc1", "target or system": "786-0 renal", "unit of measurement": "%", "growth": 103}
{"compound": "COc1cc2c3c(n(C)c(=O)c2cc1OC)-c1cc2c(cc1C3=O)OCO2", "target or system": "786-0 renal", "unit of measurement": "%", "growth": 77.1}
{"compound": "CCC1NC(=O)C(NC(=O)c2ncccc2O)C(C)OC(=O)C(c2ccccc2)NC(=O)C2CC(=O)CCN2C(=O)C(Cc2ccc(N(C)C)cc2)N(C)C(=O)C2CCCN2C1=O (centres undefined) (tested in a mixture with another compound) ({Picolinoyl(3-OH)}-T[Abu]P[ξNMePhe(4-NMe2)][ξPip(4-oxo)][Phg]; ester 1-C; configuration not given here)", "target or system": "786-0 renal", "unit of measurement": "%", "growth": 67.4}
{"compound": "CCCCCCCO", "target or system": "786-0 renal", "unit of measurement": "%", "growth": 110}
{"compound": "CCCCC(O)c1ccccc1 (centres undefined)", "target or system": "786-0 renal", "unit of measurement": "%", "growth": 104}
{"compound": "O=S(=O)(Cc1ccccc1)c1ccccc1", "target or system": "786-0 renal", "unit of measurement": "%", "growth": 101}
{"compound": "CC(=O)OCC1OC(OC2=C(CC=C(C)C)C(=O)c3ccccc3C2=O)C(OC(C)=O)C(OC(C)=O)C1OC(C)=O (centres undefined)", "target or system": "786-0 renal", "unit of measurement": "%", "growth": 88.9}
{"compound": "O=C(Cc1ccccc1)Cc1ccccc1", "target or system": "786-0 renal", "unit of measurement": "%", "growth": 95.2}
{"compound": "CCCC[P+](c1ccccc1)(c1ccccc1)c1ccccc1", "target or system": "786-0 renal", "unit of measurement": "%", "growth": 98.9}
{"compound": "CC(C)=NNc1ccc([N+](=O)[O-])cc1[N+](=O)[O-]", "target or system": "786-0 renal", "unit of measurement": "%", "growth": 93.8}
{"compound": "O=[N+]([O-])c1ccccc1S(=O)c1ccccc1[N+](=O)[O-]", "target or system": "786-0 renal", "unit of measurement": "%", "growth": 111}
{"compound": "C=CC[N+](C)(C)C", "target or system": "786-0 renal", "unit of measurement": "%", "growth": 102}
{"compound": "COC(=O)c1cccc(Br)c1", "target or system": "786-0 renal", "unit of measurement": "%", "growth": 110}
{"compound": "Cc1cc(N)ccc1-c1ccc(N)cc1C", "target or system": "786-0 renal", "unit of measurement": "%", "growth": 101}
